Origin of measurements: the METLIN SMRT retention time set (Domingo-Almenara et al. 2019)

procedure-summary: gradient 5% acetonitrile 3 min, to 50% in 2 min, to 85% in 15 min, held 3 min, 100 µL/min
condition-info: column: Zorbax Extend-C18 2.1 x 50 mm; eluents: water / acetonitrile, 0.1% formic acid
Below: a set of entries, each annotated with reported RP-LC retention time.
Answer with a number only, understood to be in s.

Per the records, this compound ( Cc1sc2ccn(CC(C)C)c(=O)c2c1C(=O)NCc1ccc(F)cc1 ) has RP-LC retention time equal to 917

Per the records, this compound ( Cc1nc(-c2cc3ccccc3nc2N2CCN(C(=O)c3cccs3)CC2)no1 ) has RP-LC retention time equal to 894

Per the records, this compound ( CCc1cc(C(=O)Nc2cccc(C)c2C)nc2ccnn12 ) has RP-LC retention time equal to 1150

Per the records, this compound ( CC(=O)Nc1ccc(Cc2nc(-c3cccc(-c4ccn[nH]4)c3)no2)cc1 ) has RP-LC retention time equal to 798

Per the records, this compound ( Cn1ncc2c3ccccc3n(CCCC(=O)NCc3cccnc3)c2c1=O ) has RP-LC retention time equal to 612

Per the records, this compound ( COc1ccccc1NC(=O)N1CCC(CNC(=O)CCSc2ccccc2)CC1 ) has RP-LC retention time equal to 771

Per the records, this compound ( OC1CCCCC1N1CCC(c2ccccc2)CC1 (stereo not given) ) has RP-LC retention time equal to 679

Per the records, this compound ( CCN(CC)S(=O)(=O)c1ccc2c(c1)CC(C(=O)NCCc1ccc(C)cc1)N2C(C)=O (stereo not given) ) has RP-LC retention time equal to 842

***
Per the records, this compound ( CCc1ccc(CNC(=O)C2CCCN(c3nccnc3Sc3ccccc3)C2)cc1 (stereo not given) ) has RP-LC retention time equal to 1140

Per the records, this compound ( COc1ccc(-n2cc(C(=O)O)c3c2C(C(F)(F)F)CC(=O)N3)c(OC)c1 (stereo not given) ) has RP-LC retention time equal to 731
